# Tested on: LPESG (Abz-LPESGK(Dnp)-CONH2)
# METHOD SUMMARY: In vitro sortase kinetics HPLC assay, LPESG substrate;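 also: KH hydrolysis constant in µM from GGG titration at fixed substrate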
# Assay type: biochemical
# COND: 1 mM 4S (LPESG) substrate
# Procedure: See below for details on sortase expression and purification, and on the synthesis of Abz-LPETGK(Dnp)-CONH2 (SEQ ID NO: 19). […] Reactions were initiated with the addition of enzyme and incubated at 22.5° C. for 3 to 20 minutes before quenching with 0.5 volumes of 1 M HCl. […] Percent conversion was also calculated by using the ratio of the integrated areas of the GK(Dnp)-CONH2 and Abz-LPETGK(Dnp)-CONH2 peptide Abs355 peaks were compared directly (Example 5). […]
Field: Khydrolysis. Provide a value for each of the molecules that follow.
Respond with the figure and its unit, in that order.

Task: Supply measured Khydrolysis of 4S.6A: 5mut + N98D A104V A118S F122A K134G I182V E189V (protein) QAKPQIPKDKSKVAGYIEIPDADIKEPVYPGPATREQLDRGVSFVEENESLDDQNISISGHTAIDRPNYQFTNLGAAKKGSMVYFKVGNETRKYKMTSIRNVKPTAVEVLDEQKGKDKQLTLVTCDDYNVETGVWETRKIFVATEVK in your reply.
Result: 179.3 µM

Task: State its Khydrolysis: eSrtA(4S-5): 5mut + N98D A104V A118T F122A K134R I182V (protein) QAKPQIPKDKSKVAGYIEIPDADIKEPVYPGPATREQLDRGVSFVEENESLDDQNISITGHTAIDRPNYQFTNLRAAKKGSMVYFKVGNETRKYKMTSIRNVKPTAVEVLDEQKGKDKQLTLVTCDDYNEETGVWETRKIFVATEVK
Result: 190.8 µM

Task: Answer with reported Khydrolysis of 4S.6C: 5mut + N98D A104V A118T F122A K134R I182V E189F (protein) QAKPQIPKDKSKVAGYIEIPDADIKEPVYPGPATREQLDRGVSFVEENESLDDQNISITGHTAIDRPNYQFTNLRAAKKGSMVYFKVGNETRKYKMTSIRNVKPTAVEVLDEQKGKDKQLTLVTCDDYNFETGVWETRKIFVATEVK
Result: 334.1 µM
